# targetUnderTest: T1, HLA-DR3 (DRB1*0301), purified from MAT cells (human)
# T1 chain 1: not shown
# T1 chain 2: not shown
# test: 125I-peptide inhibition, purified class II
Non-standard residues stand in square brackets, D forms with d. No end group written: not given here. Cha = N[C@@H](CC1CCCCC1)C(=O)O
# maps each entry to its IC50
observedProperty: IC50 (nM)

[
  {
    "binder": "[dA]A[Cha]VAAATLKAA[dA] [906.09]",
    "recordedResult": 280
  },
  {
    "binder": "[dA]A[Cha]IAAATLKAA[dA] [906.11]",
    "recordedResult": 100
  },
  {
    "binder": "[dA]A[Cha]AAEATLKAA[dA]-NH2 [906.19]",
    "recordedResult": 1500
  }
]
